TARGET_DESC: Serine/threonine-protein kinase ATR (Homo sapiens)
Sequence (Q13535 whole entry): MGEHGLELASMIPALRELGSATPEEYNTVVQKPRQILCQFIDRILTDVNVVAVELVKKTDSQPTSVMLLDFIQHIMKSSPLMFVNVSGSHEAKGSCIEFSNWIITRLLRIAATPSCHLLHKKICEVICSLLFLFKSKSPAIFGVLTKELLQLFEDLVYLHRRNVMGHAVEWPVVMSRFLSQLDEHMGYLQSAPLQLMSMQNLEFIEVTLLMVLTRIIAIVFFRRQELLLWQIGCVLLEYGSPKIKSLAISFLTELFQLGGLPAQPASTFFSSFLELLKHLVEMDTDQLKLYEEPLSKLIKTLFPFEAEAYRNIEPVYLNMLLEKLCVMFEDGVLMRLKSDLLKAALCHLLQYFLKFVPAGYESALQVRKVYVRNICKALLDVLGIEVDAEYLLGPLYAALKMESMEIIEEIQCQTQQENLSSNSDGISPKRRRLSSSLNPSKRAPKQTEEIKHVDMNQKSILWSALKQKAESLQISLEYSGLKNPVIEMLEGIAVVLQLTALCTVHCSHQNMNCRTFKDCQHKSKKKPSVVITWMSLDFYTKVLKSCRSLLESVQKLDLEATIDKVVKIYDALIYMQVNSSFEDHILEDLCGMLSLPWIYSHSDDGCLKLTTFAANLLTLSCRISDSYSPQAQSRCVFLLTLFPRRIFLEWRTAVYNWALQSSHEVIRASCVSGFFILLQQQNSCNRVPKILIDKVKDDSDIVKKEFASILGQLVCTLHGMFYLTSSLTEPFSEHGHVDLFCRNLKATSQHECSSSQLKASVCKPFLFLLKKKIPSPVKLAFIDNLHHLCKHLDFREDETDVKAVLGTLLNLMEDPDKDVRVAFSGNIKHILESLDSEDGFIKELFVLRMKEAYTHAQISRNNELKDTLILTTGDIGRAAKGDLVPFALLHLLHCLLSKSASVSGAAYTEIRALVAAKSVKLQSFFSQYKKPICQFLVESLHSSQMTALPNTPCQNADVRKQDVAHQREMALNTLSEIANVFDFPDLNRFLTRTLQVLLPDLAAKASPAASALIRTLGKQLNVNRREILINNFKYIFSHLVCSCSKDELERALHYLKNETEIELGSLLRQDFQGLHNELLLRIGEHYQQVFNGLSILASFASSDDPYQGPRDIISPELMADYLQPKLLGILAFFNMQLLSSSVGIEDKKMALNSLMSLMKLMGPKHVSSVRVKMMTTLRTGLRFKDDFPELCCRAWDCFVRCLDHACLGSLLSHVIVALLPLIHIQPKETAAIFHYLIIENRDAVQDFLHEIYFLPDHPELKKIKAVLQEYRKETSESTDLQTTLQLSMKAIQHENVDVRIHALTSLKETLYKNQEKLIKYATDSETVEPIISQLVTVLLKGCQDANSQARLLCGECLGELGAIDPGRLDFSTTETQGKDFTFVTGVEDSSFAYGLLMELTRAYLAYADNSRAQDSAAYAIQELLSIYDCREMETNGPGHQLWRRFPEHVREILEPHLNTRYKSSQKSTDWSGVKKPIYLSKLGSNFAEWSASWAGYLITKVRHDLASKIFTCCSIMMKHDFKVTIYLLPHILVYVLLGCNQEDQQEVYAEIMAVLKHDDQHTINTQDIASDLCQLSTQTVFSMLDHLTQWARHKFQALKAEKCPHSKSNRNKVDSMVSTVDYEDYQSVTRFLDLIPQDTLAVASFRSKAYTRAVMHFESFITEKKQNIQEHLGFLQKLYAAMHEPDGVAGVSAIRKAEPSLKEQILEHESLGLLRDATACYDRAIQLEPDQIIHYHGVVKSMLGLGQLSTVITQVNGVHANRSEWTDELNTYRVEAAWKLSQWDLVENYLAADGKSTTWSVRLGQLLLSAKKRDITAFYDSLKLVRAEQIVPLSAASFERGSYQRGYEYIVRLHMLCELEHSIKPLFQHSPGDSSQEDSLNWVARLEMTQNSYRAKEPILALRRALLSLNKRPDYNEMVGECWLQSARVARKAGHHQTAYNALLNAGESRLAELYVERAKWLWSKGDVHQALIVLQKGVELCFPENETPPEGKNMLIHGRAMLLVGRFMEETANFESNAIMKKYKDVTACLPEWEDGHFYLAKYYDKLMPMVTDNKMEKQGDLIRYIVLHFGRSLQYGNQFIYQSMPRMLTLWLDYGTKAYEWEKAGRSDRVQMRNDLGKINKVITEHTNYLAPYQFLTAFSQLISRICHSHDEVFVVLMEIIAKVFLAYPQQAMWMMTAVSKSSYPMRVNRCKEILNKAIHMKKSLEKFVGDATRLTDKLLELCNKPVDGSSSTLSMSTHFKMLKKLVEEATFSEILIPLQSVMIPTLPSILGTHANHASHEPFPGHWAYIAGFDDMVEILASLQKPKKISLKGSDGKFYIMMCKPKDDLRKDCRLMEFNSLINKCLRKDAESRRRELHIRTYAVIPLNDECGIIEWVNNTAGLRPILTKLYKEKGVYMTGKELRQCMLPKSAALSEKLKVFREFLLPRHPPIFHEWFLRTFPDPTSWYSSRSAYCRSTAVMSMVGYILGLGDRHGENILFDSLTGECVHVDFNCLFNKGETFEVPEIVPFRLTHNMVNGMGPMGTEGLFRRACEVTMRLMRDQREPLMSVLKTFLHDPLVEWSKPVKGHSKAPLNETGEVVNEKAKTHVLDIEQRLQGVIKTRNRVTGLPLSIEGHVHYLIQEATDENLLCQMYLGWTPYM
METHOD: Inhibition of ATR in human HT-29 cells assessed as hydroxyurea-induced phosphorylation of H2AX by immunofluorescence microscopy
Assay type: cell-based
pIC50: −log10 of the molar value.

- COMPOUND: "C[S+]([O-])c1ccc(-c2cnc(N)c(C(=O)Nc3ccccc3)n2)cc1 (centres undefined)"
  VALUE_MODIFIER: "="
  pIC50: 5.27
- COMPOUND: "Nc1ncc(-c2ccc(S(=O)(=O)[C@@H]3CCOC3)cc2)nc1C(=O)Nc1ccccc1"
  VALUE_MODIFIER: "="
  pIC50: 6.34
- COMPOUND: "CCC(C)S(=O)(=O)c1ccc(-c2cnc(N)c(C(=O)Nc3ccccc3)n2)cc1 (centres undefined)"
  VALUE_MODIFIER: "="
  pIC50: 5.80
- COMPOUND: "CC(CN(C)C)S(=O)(=O)c1ccc(-c2cnc(N)c(C(=O)Nc3ccccc3)n2)cc1 (centres undefined)"
  VALUE_MODIFIER: "="
  pIC50: 6.38
- COMPOUND: "CCCS(=O)(=O)c1ccc(-c2cnc(N)c(C(=O)Nc3ccccc3)n2)cc1"
  VALUE_MODIFIER: "="
  pIC50: 5.70
- COMPOUND: "CC(C)S(=O)(=O)c1ccc(-c2cnc(N)c(C(=O)Nc3ccccc3)n2)cc1"
  VALUE_MODIFIER: "="
  pIC50: 6.00
- COMPOUND: "CCS(=O)(=O)c1ccc(-c2cnc(N)c(C(=O)Nc3ccccc3)n2)cc1"
  VALUE_MODIFIER: "="
  pIC50: 5.82
- COMPOUND: "Nc1ncc(-c2ccccc2)nc1C(=O)Nc1ccccc1"
  VALUE_MODIFIER: "<"
  pIC50: 5.60
- COMPOUND: "CN(C)C(=O)c1ccc(-c2cnc(N)c(C(=O)Nc3ccccc3)n2)cc1"
  VALUE_MODIFIER: "="
  pIC50: 5.70
- COMPOUND: "Nc1ncc(-c2ccc(C(=O)N3CCCC3)cc2)nc1C(=O)Nc1ccccc1"
  VALUE_MODIFIER: "="
  pIC50: 5.85
- COMPOUND: "Nc1ncc(-c2ccc(C(=O)N3CCCCC3)cc2)nc1C(=O)Nc1ccccc1"
  VALUE_MODIFIER: "="
  pIC50: 5.19
- COMPOUND: "CC(CCO)S(=O)(=O)c1ccc(-c2cnc(N)c(C(=O)Nc3ccccc3)n2)cc1 (centres undefined)"
  VALUE_MODIFIER: "="
  pIC50: 6.42
- COMPOUND: "CN(C)C(=O)c1ccc(-c2cnc(N)c(C(=O)Nc3ccccc3)n2)cc1Cl"
  VALUE_MODIFIER: "="
  pIC50: 4.92
- COMPOUND: "Nc1ncc(-c2ccc(C(=O)N3CCC3)cc2)nc1C(=O)Nc1ccccc1"
  VALUE_MODIFIER: "="
  pIC50: 6.00
